B1: Hairpin Ribozyme (parent)
chain: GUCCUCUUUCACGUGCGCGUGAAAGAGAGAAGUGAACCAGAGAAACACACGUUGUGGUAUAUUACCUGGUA

variants of: B1; assay: self-cleavage, relative activity (ratio to wild type); higher = more cleavage; co-transcriptional
Label 1 (yes) for high-side self-cleavage (at or above 0.2) and 0 (no) for low-side self-cleavage (below it).

Example results:
| CHANGES | ASSIGNED CLASS |
| --- | --- |
| G27C G32A | 0 (no) |
| G29U A59G | 0 (no) |
| A28U A45G | 0 (no) |
| G21A C38G | 1 (yes) |
| U33A G56U | 0 (no) |
| C46A A59U | 0 (no) |
| A28G U55A | 1 (yes) |
| U7G U53C | 1 (yes) |
| G15U A49C | 0 (no) |
| G27C A49G | 0 (no) |

Qu. Please check the record A30U A41G and state if its self-cleavage is at or above 0.2.
Ans. 0 (no)

Qu. Please check the record C12G C50A and state if its self-cleavage is at or above 0.2.
Ans. 1 (yes)

Qu. Please check the record C10A A41C and state if its self-cleavage is at or above 0.2.
Ans. 1 (yes)

Qu. Please check the record G13A C46U and state if its self-cleavage is at or above 0.2.
Ans. 1 (yes)

Qu. Please check the record A31C C46A and state if its self-cleavage is at or above 0.2.
Ans. 0 (no)

Qu. Please check the record A35C G54U and state if its self-cleavage is at or above 0.2.
Ans. 1 (yes)

Qu. Please check the record C12U G32A and state if its self-cleavage is at or above 0.2.
Ans. 0 (no)

Qu. Please check the record C48U U63A and state if its self-cleavage is at or above 0.2.
Ans. 0 (no)

Qu. Please check the record C12G G34C and state if its self-cleavage is at or above 0.2.
Ans. 1 (yes)

Qu. Please check the record G51A U55G and state if its self-cleavage is at or above 0.2.
Ans. 1 (yes)

Qu. Please check the record U60A U62G and state if its self-cleavage is at or above 0.2.
Ans. 0 (no)

Qu. Please check the record C16A C66U and state if its self-cleavage is at or above 0.2.
Ans. 1 (yes)

Qu. Please check the record A30U C65U and state if its self-cleavage is at or above 0.2.
Ans. 0 (no)

Qu. Please check the record U14A A47G and state if its self-cleavage is at or above 0.2.
Ans. 0 (no)

Qu. Please check the record C3G U58C and state if its self-cleavage is at or above 0.2.
Ans. 1 (yes)

Qu. Please check the record A36G G54C and state if its self-cleavage is at or above 0.2.
Ans. 1 (yes)

Qu. Please check the record U8A G54U and state if its self-cleavage is at or above 0.2.
Ans. 1 (yes)
